# Test system: NCI-H522 lung
# Assay Protocol: NCI tumour cell line growth inhibition, 48 h
Entries annotated with measured TGI

- Compound: "Cc1nnc2cc(C(=O)O)c3ccccc3n2c1=O"
  TGI: "> 10 µM"
- Compound: "Cc1cc2ccccc2c[n+]1CC(O)C[n+]1cc2ccccc2cc1C"
  TGI: "> 100 µM"
- Compound: "COP(=O)(OC)C(N)CCSC (stereo not given)"
  TGI: "> 100 µM"
- Compound: "Nc1[nH]c(=O)ncc1F"
  TGI: "> 100 µM"
- Compound: "CCCn1c(C23CC4CC(CC(C4)C2)C3)nc2ccc(Cl)cc2c1=O"
  TGI: "> 100 µM"
- Compound: "COc1ccc(-c2ccc(/C=C/C(=O)NO)cc2)cc1"
  TGI: "16.4 µM"
- Compound: "N#Cc1cccc(NC(=O)c2ccc(C(=O)O)c(C(=O)c3ccc(C(=O)O)c(C(=O)Nc4cccc(C#N)c4)c3)c2)c1"
  TGI: "> 100 µM"
- Compound: "Cc1cccc(C(C)(C)C)c1NC(=O)/C(Cc1nc2ccc([N+](=O)[O-])cc2[nH]c1=O)=N/NC(=O)C[N+](C)(C)C"
  TGI: "> 100 µM"
- Compound: "COc1ccc(SC2c3cc(OC)c(OC)cc3Oc3nc(N)c(C#N)c(N)c32)cc1 (stereo not given)"
  TGI: "2.77 µM"
- Compound: "CCCCCc1cc2c(cc1O)CC[C@@H]1[C@@H]2CC[C@]2(C)[C@@H](O)CC[C@@H]12"
  TGI: "42.7 µM"

###

Entries annotated with measured GI50
# System: KM12 colon
# Assay Protocol: NCI tumour cell line growth inhibition, 48 h

- Compound: "CC(CN=C(CC(=O)c1ccc(Br)cc1)c1ccccc1)N=C(CC(=O)c1ccc(Br)cc1)c1ccccc1 (centres undefined)"
  Target Or System: "KM12 colon"
  GI50: "32.3 µM"
- Compound: "COc1ccc(/C(C)=C(\\c2ccc(Cl)cc2)c2ccc(OCCN3CCCC3)cc2)cc1"
  Target Or System: "KM12 colon"
  GI50: "1.98 µM"
- Compound: "C#CCN1C(=O)/C(=c2\\sc3n(c2=O)C2C(NN=3)N(CC)C(=O)N2CC)c2ccccc21 (centres undefined)"
  Target Or System: "KM12 colon"
  GI50: "0.46 µM"
- Compound: "O=C(NCc1cccnc1)/C(=C\\c1ccc(Br)cc1)S(=O)(=O)c1ccccc1"
  Target Or System: "KM12 colon"
  GI50: "1.53 µM"
- Compound: "OC(c1ccc(Cl)cc1)(c1ccc(Cl)cc1)C(O)(c1ccc(Cl)cc1)c1ccc(Cl)cc1"
  Target Or System: "KM12 colon"
  GI50: "4.12 µM"
- Compound: "COc1ccc(/C=C/c2c(C(=O)/C=C/c3ccc(Cl)cc3)c(C)nc3ccccc23)cc1"
  Target Or System: "KM12 colon"
  GI50: "1.73 µM"
- Compound: "COc1ccc(N2CCN(C(=O)c3ccccc3Nc3ccnc(C(F)(F)F)c3)CC2)cc1"
  Target Or System: "KM12 colon"
  GI50: "76.9 µM"
- Compound: "COc1ccc2c(c1)CCC1C2CC[C@@]2(C)C1CC[C@@]2(O)CNC(=O)/C=C/c1ccc(O)c(OC)c1 (some centres undefined)"
  Target Or System: "KM12 colon"
  GI50: "4.77 µM"
- Compound: "C=CN1C(=O)OC(c2ccccc2)C1c1ccccc1 (centres undefined)"
  Target Or System: "KM12 colon"
  GI50: "> 100 µM"

###

Entries annotated with measured TGI
# Test system: NCI-H460 lung
# Assay Protocol: NCI tumour cell line growth inhibition, 48 h

- Compound: "COc1cc([C@@H]2c3cc4c(cc3[C@@H](NC(=O)c3ccc(N)cc3)C3COC(=O)[C@@H]32)OCO4)cc(OC)c1O (some centres undefined)"
  TGI: "10.9 µM"
- Compound: "Cc1c[nH]c2c1C13CC1CN(C(=O)c1cc4cc(NC(=O)c5cc6ccccc6o5)ccc4[nH]1)C3=CC2=O (centres undefined)"
  TGI: "< 0.001 µM"
- Compound: "CN(C(=O)C1(C(=O)C=[N+]=[N-])CC1)c1ccccc1"
  TGI: "> 100 µM"
- Compound: "COC(=O)c1c[nH]c(=O)[nH]c1=O"
  TGI: "> 100 µM"
- Compound: "N#Cc1c(NC(=O)c2ccccc2)sc2c1CCC(=O)C2"
  TGI: "> 100 µM"
- Compound: "COC(=O)C(/C(=N/NC(=O)c1ccncc1)C(=O)Nc1ccccc1OC)c1nc2ccc(Cl)cc2[nH]c1=O (centres undefined)"
  TGI: "> 100 µM"
- Compound: "COC(=O)C1=C(O)C(C(=O)OC)[C@@]2(O)[C@@H](C(=O)OC)C(c3ccc(OC(=O)/C(=C/c4ccc(Cl)cc4)c4ccc(Cl)cc4)cc3)C[C@@H]1[C@@H]2C(=O)OC (some centres undefined)"
  TGI: "> 100 µM"
- Compound: "Cc1ccc2c(c1)C(=O)c1c-2n(CCCN)c(=O)c2cc([N+](=O)[O-])ccc12"
  TGI: "0.629 µM"
- Compound: "CC1=CC(O)C(O)C2(C)C1CC1OC(=O)C(O)C3C(C)C(O)C4(O)OCC13C42 (centres undefined)"
  TGI: "50 µM"

###

Entries annotated with measured GI50
# System: CAKI-1 renal
# Assay Protocol: NCI tumour cell line growth inhibition, 48 h

- Compound: "CC1(C)CCC[C@]23C(=O)O[C@](O)(C(=O)C4=C[C@@](C)(/C=C/CCCc5ccc6ccc7cccc8ccc5c6c78)CC[C@@]42O)[C@@H]13"
  GI50: "183 nM"
- Compound: "S=c1nc(-c2ccccc2)oc(=NC2CCCCC2)n1C1CCCCC1"
  GI50: "1990 nM"
- Compound: "COc1ccc(-c2ccc3c(NC(=O)C4CC4)n[nH]c3n2)cc1"
  GI50: "> 25000 nM"
- Compound: "Cl.[Pt].[c-]1ccccc1-c1ccccn1.c1ccc(P(c2ccccc2)C([PH+](c2ccccc2)c2ccccc2)[PH+](c2ccccc2)c2ccccc2)cc1"
  GI50: "1810 nM"
- Compound: "Oc1ccc2oc3ncc(Cl)c(-c4ccccc4)c3c2c1"
  GI50: "> 100000 nM"
- Compound: "COC(=O)C[CH](C(=O)OC)[Ge]([CH3])([CH3])[S]c1ccccc1 (stereo not given)"
  GI50: "20800 nM"
- Compound: "CC1(C)N=C(N)N=C(N)N1c1cccc(C#N)c1"
  GI50: "2450 nM"
- Compound: "CCOC(=O)c1sc(-c2ccc(OS(=O)(=O)c3cccs3)c(C=O)c2)nc1C"
  GI50: "1310 nM"
- Compound: "Cc1c[nH]c2c1C13CC1CN(C(=O)c1cc4cc(NC(=O)c5cc6ccccc6o5)ccc4[nH]1)C3=CC2=O (stereo not given)"
  GI50: "> 1.17 ng/mL"
- Compound: "Nc1ncnc2c1c(C(F)(F)F)cn2[C@@H]1O[C@H](CO)[C@@H](O)[C@H]1O"
  GI50: "490 nM"
- Compound: "C#CCN1C(=O)/C(=c2\\sc3n(c2=O)C2C(NN=3)N(CC)C(=O)N2CC)c2ccccc21 (stereo not given)"
  GI50: "459 nM"
- Compound: "COc1ccc(C(=O)c2cc(OC)c(OC)c(OC)c2)cc1OC(C)=O"
  GI50: "74.6 nM"
- Compound: "CCSc1oc(-c2ccccc2)nc1[P+](c1ccccc1)(c1ccccc1)c1ccccc1"
  GI50: "790 nM"
- Compound: "CCCCCCCCCCCCn1c(C)nc2ccccc21"
  GI50: "14000 nM"
- Compound: "COc1cc(C)c(C(=O)O[C@H]2[C@H](O[C@H]3[C@@H](O)COC(O[C@H]4C[C@H]5[C@@H]6CC=C7C[C@@H](O)CC[C@]7(C)[C@H]6CC[C@]5(C)[C@H]4[C@H](C)C(=O)CCC(C)C)[C@@H]3OC(C)=O)OC[C@@H](O)[C@@H]2O)c(C)c1 (stereo not given in full)"
  GI50: "< 10 nM"

###

Entries annotated with measured TGI
# Test system: SF-539 CNS
# Assay Protocol: NCI tumour cell line growth inhibition, 48 h
Observation Type: TGI

- Compound: "O=[N+]([O-])c1cccc([N+](=O)[O-])c1S(=O)(=O)c1ccccc1"
  Target Or System: "SF-539 CNS"
  Result: "30.2 µM"
- Compound: "Cc1c[nH]c2c1C13CC1CN(C(=O)c1cc4cc(NC(=O)c5cc6ccccc6o5)ccc4[nH]1)C3=CC2=O (centres undefined)"
  Target Or System: "SF-539 CNS"
  Result: "< 0.001 µM"
- Compound: "O=C1/C(=C/c2ccccc2)CCc2ccc(Cl)nc21"
  Target Or System: "SF-539 CNS"
  Result: "15.4 µM"
- Compound: "CC(=O)OCC1OC(OC2C(COC(C)=O)OC(OCCC[S-])C(OC(C)=O)C2OC(C)=O)C(OC(C)=O)C(OC(C)=O)C1OC(C)=O.[Au+].c1ccc(CN2[CH-]N(Cc3ccccc3)C(c3ccccc3)=C2c2ccccc2)cc1 (centres undefined)"
  Target Or System: "SF-539 CNS"
  Result: "17.6 µM"

Numbers sourced from PubChem BioAssay (NCI).
